System: IGROV1 ovarian
Assay: NCI tumour cell line growth inhibition, 48 h
Recorded measurements of GI50, one per entry

Before answering, review these 3 worked examples.
# compound, GI50
records = [
    ("COc1ccc(C2CC(c3cccc(Nc4ccnc5cc(Cl)ccc45)c3)=NN2c2ccccc2)cc1 (centres undefined)", "11.6 µM"),
    ("O=C1C=Cc2cc3ccccc3c3cccc1c23", "8.42 µM"),
    ("CC([C@H]1CCC2C3CCC4C(=O)C(NC=O)=CC[C@]4(C)C3CC[C@@]21C)N(C)C (some centres undefined)", "2.29 µM"),
]

Query: Entry under review: C=C1c2c(C)nn(-c3ccccc3)c2N(C)C23C[C@@H]1C1(C)c4c(C)nn(-c5ccccc5)c4N(C)C(C)(C[C@H]12)C3 (some centres undefined) . Reported GI50?
Result: 11.9 µM
